In this section, each of the molecules is paired with its reported composite z-score.
PROCEDURE DETAILS: small-molecule microarray binders of probe aLefty2, primary screen, biochemical, biotinylated probe, 635/667 nm fluorescence (AID 1094);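 also: score merges spot fluorescence near 667 nm with spot signal-to-noise ratio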
CONDITION: higher = more signal
Response field accepts a number only; no unit should be typed.

Here is how some molecules turned out for composite z-score.
[
  {
    "MOLECULE": "CCCC=C(CCC)[C@@H](NC(=O)c1ccc(-c2ccccc2)cc1)c1ccc(C(=O)OC)cc1",
    "RECORDED NUMBER": 0.0997
  },
  {
    "MOLECULE": "COc1ccc(COC(=O)NN=C2C[C@@H](O)[C@@H](O)[C@@H]3[C@@H]4C(=O)N(Cc5ccc6c(c5)OCO6)C(=O)[C@@H]4CC[C@@H]23)cc1",
    "RECORDED NUMBER": 0.63
  },
  {
    "MOLECULE": "O=C1[C@H]2[C@H]3[C@H](O)[C@H](O)CC(=NO[C@@H]4O[C@H](CO)[C@@H](O)[C@H](O)[C@H]4O)[C@@H]3CC[C@H]2C(=O)N1Cc1ccc2c(c1)OCO2",
    "RECORDED NUMBER": -0.0991
  },
  {
    "MOLECULE": "C[C@@H]1C=CCC(=O)OC[C@H](C)C(=O)N2CCC[C@H]2C(=O)OC1",
    "RECORDED NUMBER": -0.0971
  },
  {
    "MOLECULE": "COc1ccc(OC[C@H]2Cc3c(-c4ccccc4)nc4c(c3CO2)CN(CCOc2ccccc2)CC4)cc1",
    "RECORDED NUMBER": 0.0534
  }
]

composite z-score for CN1C(=O)C2C=CC(C(O)C(c3ccccc3)c3ccccc3)N(NC(=O)OC(C)(C)C)C2C1=O (stereo not drawn) is 0.59

Briefly, composite z-score measured for CN1C(=O)C2C(C1=O)C1C=C(CCCO)C2C(c2ccc(CN3CCCC3)cc2)N1C (stereo not drawn) : -0.193

For CCOC(=O)C1=CC[C@H]2C(=O)N(CC)C(=O)[C@@H]12 the molecule record lists composite z-score as -0.181
